Molecular target: HA of influenza B virus B/Hong Kong/330/2001 (victoria) (influenza B virus B/Hong Kong/330/2001)
Assay: cell-based or functional assay
recorded.metric: Neutralization (Ave IC50 ug/ml) (µg/mL)
Answer format: numeric, µg/mL implied, no suffix.

The binder listed as FBC-39 (antibody, V domains shown) VH: EVQLVVSGGGLVKPGGSLRLSCAASGLSFLNAWMSWVRQAPGKGLEWVGRIKSNTDGGTTDYAAPVKGRFSISRDDSKNMLFLHMSSLRTEDTAVYYCATDGPYSDDFRSGYAARYRYFGMDVWGQGTTVTVSS VL: DIQMTQSPSSVSASVGDRVTITCRASQDISTWLAWYQQKPGKAPKLLIYAASSLQSGVPSRFSGSGSGTDFTLTISSLQPEDFATYFCQQANSFPPTFGQGTKLEIK shows Neutralization (Ave IC50 ug/ml) equal to 0.142

Given item FBC-39 FSL (antibody, V domains shown) VH: EVQLVESGGGLVKPGGSLRLSCAASGFSFLNAWMSWVRQAPGKGLEWVGRIKSNTDGGTTDYAAPVKGRFTISRDDSKNTLYLQMSSLKTEDTAVYYCTTDGPYSDDFRSGYAARYRYFGMDVWGQGTTVTVSS VL: DIQMTQSPSSVSASVGDRVTITCRASQDISTWLAWYQQKPGKAPKLLIYAASSLQSGVPSRFSGSGSGTDFTLTISSLQPEDFATYYCQQANSFPPTFGQGTKLEIK , the value recorded as its Neutralization (Ave IC50 ug/ml) is 0.132

Further cases:
Looking up FBC-39 LTL (antibody, V domains shown) VH: EVQLVESGGGLVKPGGSLRLSCAASGLTFLNAWMSWVRQAPGKGLEWVGRIKSNTDGGTTDYAAPVKGRFTISRDDSKNTLYLQMSSLKTEDTAVYYCTTDGPYSDDFRSGYAARYRYFGMDVWGQGTTVTVSS VL: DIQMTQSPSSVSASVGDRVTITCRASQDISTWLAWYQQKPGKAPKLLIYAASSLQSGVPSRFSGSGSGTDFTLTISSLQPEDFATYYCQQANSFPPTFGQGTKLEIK , I see its Neutralization (Ave IC50 ug/ml) listed as 0.084

Neutralization (Ave IC50 ug/ml) reading for FBD-94 (antibody, V domains shown) VH: EVQLVESGGGLVQPGRSLRLSCAVSGFIFEDYAINWVRQAPGKGLEWVSIISWDSGRIGYADSVRGRFTISRDNAKNSSFLQMNSLRPEDTAVYYCVKDMLAYYYDGSGIRYNLYGMDVWGQGTTVTVSS VL: EIVLTQSPATLSLSPGERATLSCRASRSITTFLAWYQQKPGQAPRLLIYDASNRATGVPARFSGSGSGTDFTLTINSLEPDDFAIYYCQQRDHWPPIFGQGTRLEIK : 0.021
